src = patent US20250163121A1

tested-target: T1, human insulin receptor (on human IM-9 cells) (human, UniProt P06213 28-1382)
T1 construct: whole, on cells; Endogenous receptor on IM-9 cells; the mature receptor is a processed alpha2-beta2 tetramer from one precursor; also called IR
T1 sequence (P06213 28-1382): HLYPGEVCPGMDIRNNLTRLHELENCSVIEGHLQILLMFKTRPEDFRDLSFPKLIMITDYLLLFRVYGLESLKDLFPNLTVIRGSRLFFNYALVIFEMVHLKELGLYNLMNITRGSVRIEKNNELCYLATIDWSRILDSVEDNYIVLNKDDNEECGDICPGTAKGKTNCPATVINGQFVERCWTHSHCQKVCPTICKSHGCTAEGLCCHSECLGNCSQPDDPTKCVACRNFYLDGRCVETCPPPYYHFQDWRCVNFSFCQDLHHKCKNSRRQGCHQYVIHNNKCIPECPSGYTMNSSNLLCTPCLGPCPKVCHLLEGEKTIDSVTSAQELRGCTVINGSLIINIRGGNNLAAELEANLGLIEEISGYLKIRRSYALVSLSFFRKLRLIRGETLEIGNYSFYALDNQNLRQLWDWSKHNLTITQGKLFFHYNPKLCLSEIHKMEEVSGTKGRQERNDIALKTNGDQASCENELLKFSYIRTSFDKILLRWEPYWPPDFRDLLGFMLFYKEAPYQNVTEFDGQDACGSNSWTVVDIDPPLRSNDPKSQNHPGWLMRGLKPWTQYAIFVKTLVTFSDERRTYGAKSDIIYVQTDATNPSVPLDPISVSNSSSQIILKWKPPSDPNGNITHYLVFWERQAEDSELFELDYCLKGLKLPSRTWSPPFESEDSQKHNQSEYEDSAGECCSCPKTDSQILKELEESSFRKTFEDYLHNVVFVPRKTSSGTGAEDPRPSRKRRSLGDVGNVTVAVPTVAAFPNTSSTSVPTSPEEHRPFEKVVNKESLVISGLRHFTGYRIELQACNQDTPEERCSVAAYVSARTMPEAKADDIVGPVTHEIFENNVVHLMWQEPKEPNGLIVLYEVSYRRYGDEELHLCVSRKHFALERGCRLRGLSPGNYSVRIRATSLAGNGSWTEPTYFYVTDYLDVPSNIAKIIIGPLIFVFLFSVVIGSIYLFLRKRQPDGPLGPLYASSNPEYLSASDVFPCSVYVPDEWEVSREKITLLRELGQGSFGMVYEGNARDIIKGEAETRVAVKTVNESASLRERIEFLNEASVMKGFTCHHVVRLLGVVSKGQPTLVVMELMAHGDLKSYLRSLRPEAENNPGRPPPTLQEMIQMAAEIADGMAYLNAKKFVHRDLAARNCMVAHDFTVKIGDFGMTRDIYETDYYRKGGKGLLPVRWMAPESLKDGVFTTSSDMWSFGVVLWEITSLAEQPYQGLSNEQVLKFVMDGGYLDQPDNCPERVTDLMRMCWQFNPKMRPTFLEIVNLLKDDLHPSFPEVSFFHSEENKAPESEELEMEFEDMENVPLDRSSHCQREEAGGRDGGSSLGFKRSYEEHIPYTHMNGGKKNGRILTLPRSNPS
test-details: competition with biotinylated RHI on human IM-9 cells, flow cytometry, 4 C
Reported IC50 values for a set of binders
Reply with just the number (in nM).

INSERT INTO measurements (binder, endpoint_result) VALUES
  ('insulin-Fc fusion protein of SEQ ID NO: 31 (SEQ ID NO: 26 with des hinge D and the mutation cNg-NB138-K; canine IgGB Fc fragment SEQ ID NO: 16) (Fc fusion, Non-glycosylated homodimer made in HEK293 cells; 98.1% homodimer; also called cNg-K with des hinge D) FVNQHLCGSDLVEALALVCGERGFFYTDPTGGGPRRGIVEQCCHSICSLYQLENYCNGGGGAGGGGCPKCPAPEMLGGPSVFIFPPKPKDTLLIARTPEVTCVVVDLDPEDPEVQISWFVDGKQMQTAKTQPREEQFKGTYRVVSVLPIGHQDWLKGKQFTCKVNNKALPSPIERTISKARGQAHQPSVYVLPPSREELSKNTVSLTCLIKDFFPPDIDVEWQSNGQQEPESKYRTTPPQLDEDGSYFLYSKLSVDKSRWQRGDTFICAVMHEALHNHYTQESLSHSPG', 147),
  ('insulin-Fc fusion protein of SEQ ID NO: 26 (insulin polypeptide SEQ ID NO: 5, linker SEQ ID NO: 9, canine IgGB Fc fragment SEQ ID NO: 12) (Fc fusion, Disulfide-linked homodimer made in HEK293 cells; 93% homodimer) FVNQHLCGSDLVEALALVCGERGFFYTDPTGGGPRRGIVEQCCHSICSLYQLENYCNGGGGAGGGGDCPKCPAPEMLGGPSVFIFPPKPKDTLLIARTPEVTCVVVDLDPEDPEVQISWFVDGKQMQTAKTQPREEQFNGTYRVVSVLPIGHQDWLKGKQFTCKVNNKALPSPIERTISKARGQAHQPSVYVLPPSREELSKNTVSLTCLIKDFFPPDIDVEWQSNGQQEPESKYRTTPPQLDEDGSYFLYSKLSVDKSRWQRGDTFICAVMHEALHNHYTQESLSHSPG', 28);

Input line: Returns the measured IC50 for the input binder. Input: insulin-Fc fusion protein of SEQ ID NO: 22 (insulin polypeptide SEQ ID NO: 5, linker SEQ ID NO: 9, canine IgGA Fc fragment SEQ ID NO: 11) (Fc fusion, Disulfide-linked homodimer made in HEK293 cells) FVNQHLCGSDLVEALALVCGERGFFYTDPTGGGPRRGIVEQCCHSICSLYQLENYCNGGGGAGGGGRCTDTPPCPVPEPLGGPSVLIFPPKPKDILRITRTPEVTCVVLDLGREDPEVQISWFVDGKEVHTAKTQSREQQFNGTYRVVSVLPIEHQDWLTGKEFKCRVNHIDLPSPIERTISKARGRAHKPSVYVLPPSPKELSSSDTVSITCLIKDFYPPDIDVEWQSNGQQEPERKHRMTPPQLDEDGSYFLYSKLSVDKSRWQQGDPFTCAVMHETLQNHYTDLSLSHSPG
Output line: 2730

Input line: Returns the measured IC50 for the input binder. Input: insulin-Fc fusion protein of SEQ ID NO: 29 (SEQ ID NO: 26 with the mutation cNg-NB139-S; canine IgGB Fc fragment SEQ ID NO: 15) (Fc fusion, Non-glycosylated homodimer made in HEK293 cells; 98.3% homodimer; also called cNg-S) FVNQHLCGSDLVEALALVCGERGFFYTDPTGGGPRRGIVEQCCHSICSLYQLENYCNGGGGAGGGGDCPKCPAPEMLGGPSVFIFPPKPKDTLLIARTPEVTCVVVDLDPEDPEVQISWFVDGKQMQTAKTQPREEQFSGTYRVVSVLPIGHQDWLKGKQFTCKVNNKALPSPIERTISKARGQAHQPSVYVLPPSREELSKNTVSLTCLIKDFFPPDIDVEWQSNGQQEPESKYRTTPPQLDEDGSYFLYSKLSVDKSRWQRGDTFICAVMHEALHNHYTQESLSHSPG
Output line: 145
